Hey, just so you know, these numbers are from ChEMBL document CHEMBL3988442.

Recorded Percent Effect, one value per entry.
target: Chromo domain-containing protein 1 (Saccharomyces cerevisiae (strain ATCC 204508 / S288c) (Baker's yeast)); assay: ScCHD-1 Enzyme Inhibition Assay; format: functional; set-up: scale not given: in the data most compounds retested in dose-response had high values; settings: 30 µM
assay endpoint: Percent Effect (%)

molecule	assay endpoint	recorded measurement
CCCc1nc(NCCCO)c2c(n1)c(C)nn2CC	Percent Effect	-10.1
Cc1cccc(NC(=O)c2sccc2C)n1	Percent Effect	-7.3
Cc1cnc(NC(=O)c2ccc(-n3ncc(C#N)c3N)cc2)s1	Percent Effect	-2.52
Cc1cc(C[C@@H]2CCC[C@H]2NCc2cc(C)c(O)c(C)c2)on1	Percent Effect	-12.1
COc1ccc(Cl)cc1C(=O)N1CCCC(n2nc(C)nc2C)C1 (configuration not stated)	Percent Effect	2.53
c1cn(Cc2nnc(C3CCN(c4nccs4)CC3)n2C2CC2)cn1	Percent Effect	90.7
CC(Oc1ccccc1C(F)(F)F)C(=O)NCC(N)=O (configuration not stated)	Percent Effect	2.04
N#Cc1c(F)cccc1N1CCC(NS(=O)(=O)c2cccs2)CC1	Percent Effect	-4.33
CCCn1[nH]cc/c1=N\C(=O)CN1CCn2c(nnc2C2CC2)C1	Percent Effect	-10.1
COc1cccc(OCCNC(=O)CN2CCN(C)CC2C)c1 (configuration not stated)	Percent Effect	-8.99
CNC(=O)CC1CC2(CCN(Cc3nccs3)CC2)c2ccccc21 (configuration not stated)	Percent Effect	-7.65
COc1cc(C(=O)N(Cc2ccco2)C2CC2)cc2c1OCCO2	Percent Effect	0.909

----------
organism: Homo sapiens; test: To identify inhibition of the IFN signalling (Jak-Stat) pathway via expression of an eGFP reporter gene under the control of an IFN-stimulated response element (ISRE) containing MxA promoter.; type: functional; set-up: scale not given: direction of the effect not stated beside the values; details: 30 µM
Recorded Percent Effect, one value per entry.
assay endpoint: Percent Effect (%)

compound	assay endpoint	measurement unit	recorded measurement
CCN(c1ccc(C(=O)NCCCN2CCCC2)cc1)S(=O)(=O)CC	Percent Effect	%	-5.53
COc1ccc(-c2nnc(SC(C)C(=O)NCC(C)C)[nH]2)c(OC)c1 (centres undefined)	Percent Effect	%	91.3
Cn1nnc2c1C(COCC1CC1)CN(C(=O)Cc1ccsc1)C2 (centres undefined)	Percent Effect	%	4.27
OC(CN1CCOCC1)c1ccc(OC(F)(F)F)cc1 (centres undefined)	Percent Effect	%	1.68
CCn1cc2c(n1)CN(Cc1ccncc1)CC2COCC1CC1 (centres undefined)	Percent Effect	%	4.31
O=C(c1ccncc1)N1CCC(c2nc(O)cc(-c3cccnc3)n2)C1 (centres undefined)	Percent Effect	%	17.1
CN(Cc1ccco1)Cc1ccccc1CNC(=O)c1cc[nH]n1	Percent Effect	%	18.9
Cn1ncc2c1C(COCC1CC1)CN(Cc1ccoc1)C2 (centres undefined)	Percent Effect	%	27.7
O=C(NCCOc1ccc(F)c(F)c1)NCc1ccncc1	Percent Effect	%	14.5
O=C(c1cnccn1)N1CCc2ncnc(-c3cccnc3)c2CC1	Percent Effect	%	-9.47
OCCN1CCN(Cc2coc(-c3ccc(Cl)cc3)n2)CC1	Percent Effect	%	-6.89
N#Cc1cn(C2CC2)c(=O)n(CC(O)c2ccc(OC(F)F)cc2)c1=O (centres undefined)	Percent Effect	%	3.44
COCCNS(=O)(=O)c1ccc2c(c1)CCN(C(=O)c1cncn1C)C2	Percent Effect	%	6.15
Cn1cc2c(n1)C(CNC(=O)Cc1ccsc1)OCC2 (centres undefined)	Percent Effect	%	7.06
COc1c(CNC2CCCc3ccccc32)c(C(C)C)nn1C (centres undefined)	Percent Effect	%	6.78
Cc1ccc(CN2CCC3(CC2)CC(c2cccnc2)CO3)s1 (centres undefined)	Percent Effect	%	0.622
CCSc1cc(C(=O)NCCC(=O)Nc2ccccn2)ccn1	Percent Effect	%	15.8
O=C(NCCC(=O)N1CCCC1)c1nn(-c2ccccc2F)cc1O	Percent Effect	%	17.9
CC(C(=O)NCc1ccc(-n2cncn2)nc1)n1ccnc1 (centres undefined)	Percent Effect	%	-15.5
Cc1ncsc1C(=O)NC1CCN(CC(=O)N(C)C(C)(C)C#N)CC1	Percent Effect	%	23.3
Cc1ccc(NC(=O)NC(C)c2nc[nH]n2)cc1 (centres undefined)	Percent Effect	%	-15.4
Cc1noc(CCCC(=O)NC(C)c2ccccn2)n1 (centres undefined)	Percent Effect	%	3.32
Cc1noc([C@H]2C[C@H]3OCC[C@H]3N(Cc3ccc4c(c3)OCO4)C2)n1	Percent Effect	%	-2.22
NC(=O)c1cccc(CC2CCN(C(=O)CCCN3CCOCC3)C2)c1 (centres undefined)	Percent Effect	%	6.37
